Ref: PubChem BioAssay (NCI)

Tested on: MDA-MB-468 breast
Method Notes: NCI-60 one-dose screen, 48 h (100 = growth as untreated, 0 = no growth, -100 = all killed)
Applied Conditions: 10 µM unless noted
Protocol: Growth inhibition of the MDA-MB-468 human Breast tumor cell line is measured as a screen for anti-cancer activity. Cells are grown in 96 well plates and exposed to the test compound for 48 hours. Compounds are tested at a single concentration, which is 10^-5 M for most compounds. The reported endpoint is percent growth (GI% or GIPRCNT), where numbers from 0 - 100% represent growth inhibition, and numbers from -100% - 0 represent cell death. […]
About 83,000 compounds went through this panel and 20% of them were active in at least one assay; those are over-represented in the sample as a whole.
Property Measured: growth (%)
Value expressed in %; do not type the unit.

Query string: Reported growth for `N#Cc1ccc(C(F)(F)F)nc1N1CCC(C(=O)Nc2ccc(Cl)cc2)CC1` : what is it?
Result string: 69.2

Query string: Reported growth for `COc1cc(/C=C/C(=O)c2c(C)oc3nc[nH]c(=O)c23)cc(OC)c1OC` : what is it?
Result string: 64.3

Query string: Reported growth for NCC(O)C(O)C(O)C(O)CO (stereo not given) : what is it?
Result string: 98.7

Query string: Reported growth for `C/C=C/C=N/NC(=S)Nc1ccccc1` : what is it?
Result string: 107

Query string: Reported growth for N#CC1=C(N)Oc2c(sc3c(Br)cccc23)C1c1ccc([N+](=O)[O-])cc1 (stereo not given) : what is it?
Result string: 42.2

Query string: Reported growth for `COc1cccc(-c2nn(-c3ccccc3)cc2-c2ccnc(NCCCNC(=O)Nc3ccc(Cl)c(Cl)c3)c2)c1` : what is it?
Result string: -42.9

Query string: Reported growth for `O=C(CN(C1CCCCC1)C1CCCCC1)Nc1ccc(S(=O)(=O)c2ccc(NC(=O)CN(C3CCCCC3)C3CCCCC3)cc2)cc1` : what is it?
Result string: -55.1

Query string: Reported growth for CC(=O)NC(CCC(=O)c1ccccc1)C(=O)O (stereo not given) : what is it?
Result string: 93.6

Query string: Reported growth for `COc1nc2ccccc2cc1-c1nc2c(cnn2-c2ccc(Br)cc2)c(=O)[nH]1` : what is it?
Result string: 5.52

Query string: Reported growth for `N/C(=N\C(N)=N\c1nc2ccccc2s1)c1ccnc(Br)c1` : what is it?
Result string: 96.6

Query string: Reported growth for `Clc1ccc(Nc2nccc(Nc3ccc4[nH]ncc4c3)n2)cc1` : what is it?
Result string: 33.6

Query string: Reported growth for COC1CC(OC(=O)c2ccc([N+](=O)[O-])cc2)C(COC(=O)c2ccc([N+](=O)[O-])cc2)O1 (stereo not given) : what is it?
Result string: 93.6

Query string: Reported growth for `CC1=C/C(=C(\c2cc(C)c(O)c(C(=O)O)c2)c2c(Cl)cccc2Cl)C=C(C(=O)O)C1=O` : what is it?
Result string: 104

Query string: Reported growth for CCCCCCCCCCCCC1C/C=C\CCCC(=O)O1 (stereo not given) : what is it?
Result string: 127

Query string: Reported growth for `Cc1cn(-c2cc(NC(=O)c3ccc(C)c(Nc4nccc(-c5cnccn5)n4)c3)cc(C(F)(F)F)c2)cn1` : what is it?
Result string: 103

Query string: Reported growth for `CCOC(=O)c1ccc(NC(=O)c2nc(-c3cc(OC)c(OC)c(OC)c3)n(-c3ccc(Cl)cc3)n2)cc1` : what is it?
Result string: 107

Query string: Reported growth for CCN(CC)CCCC(C)N/C(=C1\C(=O)NC(=O)\C1=C(/NC(C)CCCN(CC)CC)c1cccc(OC)c1)c1cccc(OC)c1 (stereo not given) : what is it?
Result string: -42.6

Query string: Reported growth for `NC(N)=Nc1ccc(Oc2cccc(Nc3ccc(Br)c(C(F)(F)F)c3)c2)cn1` : what is it?
Result string: -80.3

Query string: Reported growth for `O=C(N/N=C/c1ccc(Cl)cc1)c1[nH]c2ccc(Cl)cc2c1-c1ccccc1` : what is it?
Result string: 33.7

Query string: Reported growth for COc1cc(/C=C/C(=O)N2c3ccccc3CC2C)c(OC)c2c1OCO2 (stereo not given) : what is it?
Result string: 86.9

###

System: MDA-MB-468 breast
Method Notes: NCI-60 one-dose screen, 48 h (100 = growth as untreated, 0 = no growth, -100 = all killed)
Applied Conditions: 10 µM unless noted
Compounds without any hit were thinned out: in the full panel of roughly 83,000, 20% have a hit.
Property Measured: growth (%)
Value expressed in %; do not type the unit.

Query string: Reported growth for `CC/C(=C(\c1ccc(OCCN2CCCCCCC2)cc1)c1ccc(OC(=O)C2CCCCC2)cc1)c1ccc(Cl)cc1` : what is it?
Result string: 114

Query string: Reported growth for `C=C(C)[C@@H]1C[C@@H]2Cc3cc(F)ccc3N1O2` : what is it?
Result string: 104

Query string: Reported growth for `C=CCn1c(SCC(=O)Nc2ccc(C(=O)/C=C/c3cc(OC)c(OC)c(OC)c3)cc2)nnc1-c1cc(-c2ccc(S(C)(=O)=O)cc2)nc2ccccc12` : what is it?
Result string: 88.8

Query string: Reported growth for `Cn1cc(-c2csc(-c3c[nH]c4ccc(F)cc34)n2)c2ccnc(Cl)c21` : what is it?
Result string: 15

###

Tested on: MDA-MB-468 breast
Method Notes: NCI-60 one-dose screen, 48 h
Applied Conditions: 10 µM unless noted
Compounds without any hit were thinned out: in the full panel of roughly 83,000, 20% have a hit. The source made the active and inactive calls. How the source made its calls: active means growth percent below 10; inactive means the rest.
Outcome field: choose from active, inactive

Query string: Record lookup: outcome of this test for `COC(=O)CNC(=O)c1ccc(NC(=O)c2[nH]c(C)c(Cl)c2Cl)c(O[C@H]2CCNC2)c1` ?
Result string: inactive

Query string: Record lookup: outcome of this test for `CCCCNC(=O)Oc1ccc(/C(=C(/CC)Cc2ccccc2)c2ccc(OCCCN(C)C)cc2)cc1` ?
Result string: inactive

Query string: Record lookup: outcome of this test for COc1cccc(C2CC(=O)Nc3cc4c(cc32)CCC4)c1OC (stereo not given) ?
Result string: active

Query string: Record lookup: outcome of this test for `COc1ccc(-c2ccc(-c3ccc(C(=N)N)cn3)o2)cc1` ?
Result string: inactive

Query string: Record lookup: outcome of this test for `c1cc2ccc3cc2cc1CNCCOCCNCc1ccc2ccc(cc2c1)CNCCOCCNC3` ?
Result string: active

Query string: Record lookup: outcome of this test for `COc1cccc(-c2nn(-c3ccccc3)cc2-c2ccnc(NCCCNS(=O)(=O)c3cccc(F)c3)c2)c1` ?
Result string: active

Query string: Record lookup: outcome of this test for `CCCCNc1cc(C(=O)O)cc(S(N)(=O)=O)c1Oc1ccccc1` ?
Result string: inactive

Query string: Record lookup: outcome of this test for `CN1CCN(C(=O)C(C)(C)c2ccc(C(=O)Nc3cn4cc(-c5ccncc5)ccc4n3)cc2)CC1` ?
Result string: active

Query string: Record lookup: outcome of this test for `COc1cc2c(c(OC)c1OC)-c1ccc(NCc3ccccc3)c(=O)cc1[C@@H](NC(C)=O)CC2` ?
Result string: inactive

Query string: Record lookup: outcome of this test for CCC(C)CC(C)C(=O)c1c(O)ccn(OC)c1=O (stereo not given) ?
Result string: inactive

###

Tested on: A549/ATCC NSCLC
Method Notes: NCI-60 one-dose screen, 48 h (100 = growth as untreated, 0 = no growth, -100 = all killed)
Applied Conditions: 10 µM
The panel holds about 83,000 compounds, 20% with a hit somewhere; the sample as a whole holds those more often.
Response field label takes Criterion met when growth is strictly below 70% and Criterion not met in all other cases.

Query string: Is growth of `Fc1ccc(/C=C/c2nc3ccccc3n3c(-c4ccc(Cl)cc4)nnc23)cc1` strictly below 70%?
Result string: Criterion not met

Query string: Is growth of `O=C(CN1CCN(c2ncnc3c2cnn3-c2ccccc2)CC1)Nc1ccc(Cl)cc1` strictly below 70%?
Result string: Criterion met

Query string: Is growth of `Nc1nnc(-c2c[nH]c3ncc(Br)cc23)c(-c2c[nH]c3ccc(Br)cc23)n1` strictly below 70%?
Result string: Criterion met

Query string: Is growth of `COc1cc(Nc2nc(O)c(/C=C3\C=Nc4ccccc43)s2)cc(OC)c1OC` strictly below 70%?
Result string: Criterion met

Query string: Is growth of `O=C(Nc1ccc(OCC(=O)c2ccc(Cl)cc2)cc1)Nc1ccc(Cl)c(C(F)(F)F)c1` strictly below 70%?
Result string: Criterion met

Query string: Is growth of `O=C(CC(=O)Nc1ccc(Oc2ncnc3scc(Nc4n[nH]c(=S)s4)c23)cc1)Nc1ccc(Br)cc1` strictly below 70%?
Result string: Criterion not met

Query string: Is growth of `COc1ccc(Cc2nn(CC(=O)N/N=C/c3ccc(Br)cc3)c(=O)c3c(C)noc23)cc1` strictly below 70%?
Result string: Criterion met

Query string: Is growth of Cc1ccc2sc3c(c2c1)Oc1nc[nH]c(=O)c1C3c1cccc(F)c1 (centres undefined) strictly below 70%?
Result string: Criterion not met

Query string: Is growth of `CC(C)(C)c1cc(/C=C2\S/C(=N/c3ncn[nH]3)NC2=O)cc(C(C)(C)C)c1O` strictly below 70%?
Result string: Criterion met
